Some molecules, each annotated with its measured GI50.
Test system: SF-295
Test: NCI tumour cell line growth inhibition, 48 h
Calls of active or inactive are those of the source. Rule as the data show it: active = GI50 up to about 1.1 µM and inactive = higher.

{"columns": ["Molecule", "Reported property", "Measurement"],
 "data": [
  ["CC1=NN(C(=O)CSc2nnc(SCC(=O)N3N=C(C)CC3(O)c3ccccc3)s2)C(O)(c2ccccc2)C1 (stereo not given)", "GI50", "42 µM (inactive)"]
]}

### Prompt Report measured GI50 on SF-295; entry: COc1cc(S(=O)(=O)Nc2ccc(-c3csc(/N=C\c4cccs4)n3)cc2)ccc1Cl
### Response > 100 µM (inactive)

====

Test system: CAKI-1
Test: NCI tumour cell line growth inhibition, 48 h
Calls of active or inactive are those of the source. No stated cut-off is given here; in the data, active = GI50 up to about 1.1 µM and inactive = higher.
Reported property: GI50

Worked examples follow.
{"columns": ["Molecule", "GI50"],
 "data": [
  ["Cc1cc(C)c2nc3c(c(C(O)C4CCCCN4)c2c1)CC/C3=C\\c1ccc(Cl)cc1 (stereo not drawn)", "94.6 µM (inactive)"],
  ["O=[N+]([O-])c1cn[n+]([O-])c2ccccc12", "2.56 µM (inactive)"],
  ["CC(C)CCc1n[nH]c(=O)n1/N=C\\c1ccccc1", "> 10 µM (inactive)"],
  ["C=C1C(=O)OC2CC3(C)OC3CC/C(C)=C/C(OC(C)=O)C12 (stereo not drawn)", "2.13 µM (inactive)"],
  ["CC1(C)CC(=O)C2=C(C1)NC1=C(C2)C(=O)CC(C)(C)C1", "> 100 µM (inactive)"]
]}

### Prompt Report measured GI50 on CAKI-1; entry: O=C1Nc2ccc(Br)cc2/C1=N/N1C(=O)C(=O)N(C2CCCCC2)C1=S
### Response 3.1 µM (inactive)

### Prompt Report measured GI50 on CAKI-1; entry: C(=N\c1ccc(-c2nc3ccccc3s2)cc1)/c1ccc[nH]1
### Response 22.8 µM (inactive)

### Prompt Report measured GI50 on CAKI-1; entry: CC(=O)O[C@@H]1C[C@]2(C(=O)c3ccccc3)C(=O)C(=O)S[C@]12c1ccccc1
### Response 42.9 µM (inactive)

### Prompt Report measured GI50 on CAKI-1; entry: COc1cccc(/C=N\NC(=O)C(C)SC(C)C(=O)N/N=C/c2cccc(OC)c2)c1 (stereo not drawn)
### Response 34.3 µM (inactive)

### Prompt Report measured GI50 on CAKI-1; entry: CCCCC(=O)OC[n+]1cccc(-c2c(COC(=O)NC(C)C)c(COC(=O)NC(C)C)c3n2CCC3)c1
### Response 12.3 µM (inactive)

### Prompt Report measured GI50 on CAKI-1; entry: CC[P+](C)(Cc1ccccc1)c1ccccc1.O=C(OC(C(=O)[O-])C(OC(=O)c1ccccc1)C(=O)O)c1ccccc1 (stereo not drawn)
### Response > 100 µM (inactive)

### Prompt Report measured GI50 on CAKI-1; entry: C1=NN2C(c3ccccc3)=NOC2C2C(c3ccccc3)=NOC12 (stereo not drawn)
### Response > 100 µM (inactive)

### Prompt Report measured GI50 on CAKI-1; entry: N#Cc1c(N)n(-c2cccc(C(=O)O)c2)c(=O)c2cc([N+](=O)[O-])ccc12
### Response > 100 µM (inactive)

====

Tested on: NCI-H460
Test: NCI tumour cell line growth inhibition, 48 h
Activity calls are given as the source filed them. Rule as the data show it: active = GI50 up to about 1.1 µM and inactive = higher.
Some molecules, each annotated with its measured GI50.

{"columns": ["Molecule", "Test target", "Measurement"],
 "data": [
  ["O=C(CSC(=S)N1CCCCC1)Nc1nc2c(s1)CCCC2", "NCI-H460", "15.1 µM (inactive)"],
  ["CCOC(=O)C(C(=O)OCC)C(NC(=O)Nc1cc(C(F)(F)F)ccc1OC)(C(F)(F)F)C(F)(F)F", "NCI-H460", "31.5 µM (inactive)"],
  ["CC(C)(C)c1cc(C#N)c2c(c1)C(=O)OC2(c1ccccc1)c1ccccc1C#N (stereo not given)", "NCI-H460", "> 100 µM (inactive)"]
]}

### Prompt Report measured GI50 on NCI-H460; entry: O=P(c1ccccc1)(c1ccccc1)N1O[C@@H](c2ccccc2)C=C[C@H]1c1ccccc1
### Response 5.53 µM (inactive)

### Prompt Report measured GI50 on NCI-H460; entry: N=C1CCCC1C(=S)SCCC(N)=O (stereo not given)
### Response > 100 µM (inactive)

### Prompt Report measured GI50 on NCI-H460; entry: N=C(N)N/N=C/c1nc2sccn2c1[N+](=O)[O-]
### Response 18.5 µM (inactive)

### Prompt Report measured GI50 on NCI-H460; entry: COc1cc2ccc(/C(C)=N/OC(C)=O)cc2cc1OC
### Response 82.2 µM (inactive)

### Prompt Report measured GI50 on NCI-H460; entry: COc1cc(/C=C/C(=O)CC(=O)/C=C/c2cc(OC)c(O)c(OC)c2)cc(OC)c1O
### Response 22.8 µM (inactive)

### Prompt Report measured GI50 on NCI-H460; entry: c1ccc(/N=C(\N2CCCC2)N(CCN2CCCC2)c2ccccc2)cc1
### Response 10.3 µM (inactive)

### Prompt Report measured GI50 on NCI-H460; entry: Cc1ccc(NC(=O)c2cccc(OP(=O)(Nc3ccc(C)cc3)Nc3ccc(C)cc3)c2)cc1
### Response 3.88 µM (inactive)

====

Test system: RPMI-8226
Test: NCI tumour cell line growth inhibition, 48 h
Active and inactive are the calls of the source. Cut-off read from the data, not from the text of the source: active = GI50 up to about 1.1 µM and inactive = higher.
Reported property: GI50

{"columns": ["Molecule", "Measurement"],
 "data": [
  ["O=C(O)C1OC(n2cc(F)c(=O)[nH]c2=O)CC1O (stereo not drawn)", "61.7 µM (inactive)"],
  ["Nc1nc(SCCNC(=O)CCc2ccc(O)cc2)nc2c1ncn2C1OC(CO)C(O)C1O (stereo not drawn)", "> 203 µM (inactive)"]
]}

Turning to the following molecule.
### Prompt Answer with reported GI50 of COc1cc2ccc(/C(C)=N/OC(C)=O)cc2cc1OC
### Response 84.7 µM (inactive)

====

Tested on: CCRF-CEM
Test: NCI tumour cell line growth inhibition, 48 h
The source made the active and inactive calls. Cut-off read from the data, not from the text of the source: active = GI50 up to about 1.1 µM and inactive = higher.
Permitted responses: true (1) (active), false (0) (inactive)

Below are worked cases with known answers.
{"columns": ["Molecule", "Cat"],
 "data": [
  ["O=C1OC(c2ccccc2)(c2ccccc2)CC1CN1CCOCC1 (stereo not given)", "false (0)"],
  ["COc1cc(OC(C)=O)cc2c(OC(C)=O)ccc(OC(C)=O)c12", "false (0)"],
  ["CC[C@@]1(O)C(=O)OCc2c1cc1n(c2=O)Cc2c-1nc1ccccc1c2/C=N/NC(=O)c1ccc(N)cc1", "true (1)"],
  ["Cc1ccc(S(=O)(=O)N2CCC2c2ccccc2)cc1 (stereo not given)", "false (0)"]
]}

Next molecule, please.
### Prompt Each molecule tested received a call. Report the one for COc1ccc(CC(=O)NCCc2ccc(OC)c(OC)c2)cc1Br .
### Response false (0)

====

System: SK-MEL-5
Test: NCI tumour cell line growth inhibition, 48 h
Activity calls are given as the source filed them. Rule as the data show it: active = GI50 up to about 1.1 µM and inactive = higher.
Permitted responses: 1.0 for active, 0.0 for inactive

Below are worked cases with known answers.
{"columns": ["Molecule", "Cat"],
 "data": [
  ["c1ccc(CN2CCC(CNc3ncnc4ccccc34)C2)cc1 (stereo not given)", 0.0],
  ["CCCCCCNCCCNc1c2cc(OC)ccc2nc2cccc([N+](=O)[O-])c12", 1.0],
  ["CC(C)c1c(O[Si](C(C)C)(C(C)C)C(C)C)cc2c(c1O)CC[C@H]1C(C)(C)CCC[C@]21C", 0.0]
]}

### Prompt Each molecule tested received a call. Report the one for O=P(c1ccccc1)(c1ccccc1)N1O[C@@H](c2ccccc2)C=C[C@H]1c1ccccc1 .
### Response 0.0

### Prompt Each molecule tested received a call. Report the one for CN(NC(=O)c1cccs1)C1=NCCN1 .
### Response 0.0

====

Test system: HL-60
Test: NCI tumour cell line growth inhibition, 48 h
Active and inactive are the calls of the source. No stated cut-off is given here; in the data, active = GI50 up to about 1.1 µM and inactive = higher.
Permitted responses: active, inactive

{"columns": ["Molecule", "Test target", "Cat"],
 "data": [
  ["CC1CC2CC(=O)CC3(C1)C2CCCN3CCCO (stereo unspecified)", "HL-60", "inactive"],
  ["CN(C)c1n/c(=N/Cc2ccncc2)ss1", "HL-60", "inactive"],
  ["Cc1ccc(C2=Nn3c(nc4sc5c(c4c3=O)CCCC5)SC2)cc1", "HL-60", "inactive"],
  ["CC(C)(C)OC(=O)NC1CCC(C(C)(C)C)CC1 (stereo unspecified)", "HL-60", "inactive"]
]}

### Prompt Each molecule tested received a call. Report the one for O=C(O)CCN(CCCCN(CCC(=O)O)CCC(=O)O)CCC(=O)O .
### Response inactive

### Prompt Each molecule tested received a call. Report the one for CC1=NNC(=O)C1C1CC(c2c[nH]c3ccccc23)=NN(C(N)=O)C1=O (stereo unspecified) .
### Response inactive
